Catalogue of molecules with associated z-score
# measurement_protocol: basal S. cerevisiae growth modulation, no modifier, primary screen, OD600, strain BY4716, 24 h, basal condition (AID 1173)
# details: OD600, 24 h, higher = more signal, called active from +8 up or from −8 down
measurement_type: z-score

molecule	recorded_measurement
O=C1OCCC/C=C\[C@H]2OC34C=CCN(Cc5ccccc5)C(=O)[C@H]3N(CCCO)C(=O)[C@@H]4C12 (some centres not stated)	1.29
CN(C)CCCC[C@@H]1NC(=O)[C@H]2C[C@@H](C(=O)NCCCCCCN)[C@@H](c3ccc(O)cc3)N2C1=O	-0.343
COC(=O)C(CC#Cc1ccc2c(c1)[C@]1(C(=O)N2)[C@H](C(=O)Nc2nc3ccccc3s2)[C@H]2C(=O)O[C@H](c3ccccc3)[C@H](c3ccccc3)N2[C@@H]1c1ccc(O)cc1)C(=O)OC	-0.0312
CCOC(=O)C[C@H]1[C@H](OC(=O)c2ccc(C(=O)c3ccccc3)cc2)[C@@H](NC(=O)c2ccccc2)c2cc(OCCCO)ccc2N1C(=O)Cc1ccc(OC)cc1	0.0931
O=C(c1ccccc1)N1C(=O)[C@@]2(Cc3ccccc31)N=C(c1ccc(OCCCO)cc1)O[C@H]2c1ccccc1	-0.123
CN1C(=O)C2C=CC(C(O)C#Cc3ccccc3)N(N3CCCCC3)C2C1=O (configuration not stated)	-0.375
C[N+](C)(C)CCCCNC(=O)[C@@H]1C[C@@H]2C(=O)N[C@@H](Cc3ccccc3)C(=O)N2[C@@H]1c1cccc(OCCO)c1	-0.143

meta.source: PubChem BioAssay
